- System: human SKM-1 acute myeloid leukemia cells
- PROCEDURE_SUMMARY: SKM-1 antiproliferation cell-based assay (ATPlite)
- RECORDED_CONDITIONS: Homo sapiens, SKM-1, 96 h, SKM-1 antiproliferation assay, 4 days, Table C2
READOUT_NAME: GI50

COCC(COC)N1CCN(c2cc(-c3cc(F)cc(-c4ccc(-n5ccn(C)c5=O)c(Cl)c4)c3O)ccn2)CC1 = 30 to 300 nM
Cn1ccn(-c2ccc(-c3cc(F)cc(-c4ccc5ncc(C(C)(C)O)cc5c4)c3O)cc2Cl)c1=O = 30 to 300 nM
[2H]C([2H])([2H])n1ccn(-c2ccc(-c3cc(F)cc(-c4ccnc(N5CCNCC5=O)c4)c3O)cc2Cl)c1=O = 30 to 300 nM

Let me check: CN(C)C1(C)CCN(c2cc(-c3cc(F)cc(-c4ccc(-n5ccn(C)c5=O)c(Cl)c4)c3O)ccn2)C1 (stereo not shown) , system human SKM-1 acute myeloid leukemia cells, measured GI50 is 0.3 to 30 nM
